# Tested on: 898857-211-R-J1-PDC complex spheroids, growth % test/control;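 also: spheroids exposed to compound for seven days before readout; 100% = DMSO vehicle control wells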
# Assay Overview: Anticancer human tumor 898857-211-R-J1-PDC patient-derived melanoma cell line growth inhibition [RAS]
# Condition: second compound 0.03 µM; first compound 0.00316 µM; active compounds read low
Flag rule - viability, T/C less than 90% flags 1; the remaining entries get -1.

Record excerpt, results attached:
Is viability, T/C strictly under 90% for the entry C=CC(=O)N1CCN(c2nc(OCC3CCCN3C)nc3c(F)c(-c4nc(N)cc(C)c4C(F)(F)F)c(Cl)cc23)C(C)C1 (stereo unspecified) + CCn1c(-c2cc(N3CCN(C)CC3)cnc2C(C)OC)c2c3cc(ccc31)-c1csc(n1)CC(NC(=O)C1CC1C)C(=O)N1CCCC(N1)C(=O)OCC(C)(C)C2 ?
-1

Is viability, T/C strictly under 90% for the entry O=C(c1ccc(F)c(F)c1Nc1ccc(I)cc1F)N1CC(O)([C@@H]2CCCCN2)C1 + CCn1c(-c2cc(N3CCN(C)CC3)cnc2C(C)OC)c2c3cc(ccc31)-c1csc(n1)CC(NC(=O)C1CC1C)C(=O)N1CCCC(N1)C(=O)OCC(C)(C)C2 ?
1

Is viability, T/C strictly under 90% for the entry C=CC(=O)Nc1cc(Nc2nccc(-c3cn(C)c4ccccc34)n2)c(OC)cc1N(C)CCN(C)C + CCn1c(-c2cc(N3CCN(C)CC3)cnc2C(C)OC)c2c3cc(ccc31)-c1csc(n1)CC(NC(=O)C1CC1C)C(=O)N1CCCC(N1)C(=O)OCC(C)(C)C2 ?
-1

Is viability, T/C strictly under 90% for the entry O=C(c1ccc(F)c(F)c1Nc1ccc(I)cc1F)N1CC(O)([C@@H]2CCCCN2)C1 + CCn1c(-c2cccnc2C(C)OC)c2c3cc(ccc31)N1CCOC(CC(NC(=O)C(C(C)C)N(C)C(=O)C3(F)CCN(C(=O)C#CC(C)(C)N(C)C)CC3)C(=O)N3CCCC(N3)C(=O)OCC(C)(C)C2)C1 ?
1

Is viability, T/C strictly under 90% for the entry Nc1ccn(C2OC(CO)C(O)C2(F)F)c(=O)n1 (stereo unspecified) + CCn1c(-c2cccnc2C(C)OC)c2c3cc(ccc31)N1CCOC(CC(NC(=O)C(C(C)C)N(C)C(=O)C3(F)CCN(C(=O)C#CC(C)(C)N(C)C)CC3)C(=O)N3CCCC(N3)C(=O)OCC(C)(C)C2)C1 ?
1

Turning now to a further compound:
Is viability, T/C strictly under 90% for the entry CCN1CCN(Cc2ccc(Nc3ncc(F)c(-c4cc(F)c5nc(C)n(C(C)C)c5c4)n3)nc2)CC1 + CCn1c(-c2cc(N3CCN(C)CC3)cnc2C(C)OC)c2c3cc(ccc31)-c1csc(n1)CC(NC(=O)C1CC1C)C(=O)N1CCCC(N1)C(=O)OCC(C)(C)C2 ?
-1
